Kindly state fold change of affinity for each of the entries shown.
- Assayed system: T1, Human CD3eg linker (human)
- T1 construct: single-chain construct; also called recombinant human CD3
- T1 chain: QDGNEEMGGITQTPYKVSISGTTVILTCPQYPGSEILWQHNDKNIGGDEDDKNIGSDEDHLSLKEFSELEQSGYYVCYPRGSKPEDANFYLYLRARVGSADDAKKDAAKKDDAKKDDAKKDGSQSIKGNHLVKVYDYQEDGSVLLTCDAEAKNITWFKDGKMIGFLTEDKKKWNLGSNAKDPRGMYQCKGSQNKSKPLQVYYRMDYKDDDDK
- Protocol details: SPR, vs unmutated H183/L072
Answers are plain numbers, in fold.

Worked cases, answers included:
{"Binder": "dBBDu183H Y97S/dBBDu072L (antibody, name in Kabat numbering, V domains shown) VH: QVQLVESGGGLVQPGRSLRLSCAASGFTFSNAWMHWVRQAPGKGLEWVAQIKDKGNAYAAYYAPSVKGRFTISRDDSKNSIYLQMNSLKTEDTAVYYCHYVHSASASTVLPAFGVDAWGQGTTVTVSS VL: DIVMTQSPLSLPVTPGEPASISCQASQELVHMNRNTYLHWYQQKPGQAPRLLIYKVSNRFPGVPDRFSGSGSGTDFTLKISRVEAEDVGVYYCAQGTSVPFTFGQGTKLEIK", "Unit abbrev": "fold", "fold change of affinity": 0}
{"Binder": "dBBDu183H G100hK/dBBDu072L (antibody, name in Kabat numbering, V domains shown) VH: QVQLVESGGGLVQPGRSLRLSCAASGFTFSNAWMHWVRQAPGKGLEWVAQIKDKGNAYAAYYAPSVKGRFTISRDDSKNSIYLQMNSLKTEDTAVYYCHYVHYASASTVLPAFKVDAWGQGTTVTVSS VL: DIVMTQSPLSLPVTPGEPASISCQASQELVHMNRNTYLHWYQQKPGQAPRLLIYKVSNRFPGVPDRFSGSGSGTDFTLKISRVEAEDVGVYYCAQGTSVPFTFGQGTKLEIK", "Unit abbrev": "fold", "fold change of affinity": 0.3}
{"Binder": "dBBDu183H A98G/dBBDu072L (antibody, name in Kabat numbering, V domains shown) VH: QVQLVESGGGLVQPGRSLRLSCAASGFTFSNAWMHWVRQAPGKGLEWVAQIKDKGNAYAAYYAPSVKGRFTISRDDSKNSIYLQMNSLKTEDTAVYYCHYVHYGSASTVLPAFGVDAWGQGTTVTVSS VL: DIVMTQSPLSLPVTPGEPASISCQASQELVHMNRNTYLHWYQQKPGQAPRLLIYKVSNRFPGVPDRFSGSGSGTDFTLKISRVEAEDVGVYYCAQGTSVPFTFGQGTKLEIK", "Unit abbrev": "fold", "fold change of affinity": 1.4}
{"Binder": "dBBDu183H G100hY/dBBDu072L (antibody, name in Kabat numbering, V domains shown) VH: QVQLVESGGGLVQPGRSLRLSCAASGFTFSNAWMHWVRQAPGKGLEWVAQIKDKGNAYAAYYAPSVKGRFTISRDDSKNSIYLQMNSLKTEDTAVYYCHYVHYASASTVLPAFYVDAWGQGTTVTVSS VL: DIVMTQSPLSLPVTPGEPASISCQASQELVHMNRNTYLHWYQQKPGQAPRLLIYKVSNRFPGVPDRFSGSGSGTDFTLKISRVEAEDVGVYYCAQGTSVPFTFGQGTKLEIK", "Unit abbrev": "fold", "fold change of affinity": 0}
{"Binder": "dBBDu183H T100bQ/dBBDu072L (antibody, name in Kabat numbering, V domains shown) VH: QVQLVESGGGLVQPGRSLRLSCAASGFTFSNAWMHWVRQAPGKGLEWVAQIKDKGNAYAAYYAPSVKGRFTISRDDSKNSIYLQMNSLKTEDTAVYYCHYVHYASASQVLPAFGVDAWGQGTTVTVSS VL: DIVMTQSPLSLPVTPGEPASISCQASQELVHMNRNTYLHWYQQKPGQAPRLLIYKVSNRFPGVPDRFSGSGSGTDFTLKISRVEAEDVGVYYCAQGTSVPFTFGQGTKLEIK", "Unit abbrev": "fold", "fold change of affinity": 1.1}

Required: fold change of affinity, one value per binder below.
1. dBBDu183H Y97V/dBBDu072L (antibody, name in Kabat numbering, V domains shown) VH: QVQLVESGGGLVQPGRSLRLSCAASGFTFSNAWMHWVRQAPGKGLEWVAQIKDKGNAYAAYYAPSVKGRFTISRDDSKNSIYLQMNSLKTEDTAVYYCHYVHVASASTVLPAFGVDAWGQGTTVTVSS VL: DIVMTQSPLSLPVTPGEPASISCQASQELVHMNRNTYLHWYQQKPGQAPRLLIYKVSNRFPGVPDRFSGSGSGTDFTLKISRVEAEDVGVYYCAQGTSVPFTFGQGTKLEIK
2. dBBDu183H A102D/dBBDu072L (antibody, name in Kabat numbering, V domains shown) VH: QVQLVESGGGLVQPGRSLRLSCAASGFTFSNAWMHWVRQAPGKGLEWVAQIKDKGNAYAAYYAPSVKGRFTISRDDSKNSIYLQMNSLKTEDTAVYYCHYVHYASASTVLPAFGVDDWGQGTTVTVSS VL: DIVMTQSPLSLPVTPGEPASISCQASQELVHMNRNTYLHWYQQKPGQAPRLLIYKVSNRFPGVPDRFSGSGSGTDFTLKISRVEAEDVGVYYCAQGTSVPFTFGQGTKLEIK
3. dBBDu183H A102V/dBBDu072L (antibody, name in Kabat numbering, V domains shown) VH: QVQLVESGGGLVQPGRSLRLSCAASGFTFSNAWMHWVRQAPGKGLEWVAQIKDKGNAYAAYYAPSVKGRFTISRDDSKNSIYLQMNSLKTEDTAVYYCHYVHYASASTVLPAFGVDVWGQGTTVTVSS VL: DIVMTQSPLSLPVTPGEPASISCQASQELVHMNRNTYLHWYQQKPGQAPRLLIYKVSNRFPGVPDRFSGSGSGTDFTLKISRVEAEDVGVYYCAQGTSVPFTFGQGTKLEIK
4. dBBDu183H S100aE/dBBDu072L (antibody, name in Kabat numbering, V domains shown) VH: QVQLVESGGGLVQPGRSLRLSCAASGFTFSNAWMHWVRQAPGKGLEWVAQIKDKGNAYAAYYAPSVKGRFTISRDDSKNSIYLQMNSLKTEDTAVYYCHYVHYASAETVLPAFGVDAWGQGTTVTVSS VL: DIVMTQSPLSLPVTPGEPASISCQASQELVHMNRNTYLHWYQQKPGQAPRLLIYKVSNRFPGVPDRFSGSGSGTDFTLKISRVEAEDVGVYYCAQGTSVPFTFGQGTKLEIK
5. dBBDu183H H93K/dBBDu072L (antibody, name in Kabat numbering, V domains shown) VH: QVQLVESGGGLVQPGRSLRLSCAASGFTFSNAWMHWVRQAPGKGLEWVAQIKDKGNAYAAYYAPSVKGRFTISRDDSKNSIYLQMNSLKTEDTAVYYCKYVHYASASTVLPAFGVDAWGQGTTVTVSS VL: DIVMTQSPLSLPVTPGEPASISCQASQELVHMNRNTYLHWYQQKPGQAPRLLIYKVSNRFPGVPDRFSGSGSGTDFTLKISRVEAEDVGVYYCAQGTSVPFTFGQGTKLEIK

[0, 1.3, 1, 0.6, 0.2]
